- Tested on: anti-PAH monoclonal antibody
- METHOD_NOTES: PAH immunoassay (competitive, antibody coated tubes): cross-reactivity with the anti-PAH monoclonal antibody
- Type: binding, Balb/c mice
- MEASUREMENT_SETUP: Non-EPA PAHs and other compounds; soil equivalent
MEASURED_PROPERTY: Concentration Giving a Positive Result (ppm, soil equivalent)

INSERT INTO assay_data (compound, reported_result) VALUES
  ('Oc1ccccc1', '> 200 ppm'),
  ('c1ccc2c(c1)oc1ccccc12', '14 ppm'),
  ('c1ccccc1', '> 200 ppm'),
  ('Clc1cc(Cl)c(Cl)c(Cl)c1Cl', '> 200 ppm'),
  ('Clc1cc(Cl)cc(Cl)c1', '> 200 ppm'),
  ('Clc1cc(Cl)c(Cl)cc1Cl', '> 200 ppm'),
  ('CCCCC(CC)COC(=O)c1ccccc1C(=O)OCC(CC)CCCC (stereo not drawn) [Bis(2-ethylhexyl) phthalate]', '> 200 ppm'),
  ('Cc1ccccc1', '> 200 ppm');

Ask: Find the recorded Concentration Giving a Positive Result (ppm, soil equivalent) belonging to Cc1cccc2ccccc12 and report it.
Reply: 54 ppm

Ask: Now this one: Cc1ccc2ccccc2c1
Reply: 58 ppm

Ask: Note, next up: Oc1c(Cl)c(Cl)c(Cl)c(Cl)c1Cl
Reply: > 200 ppm

Ask: Same again, this time with Clc1cccc2ccccc12
Reply: 59 ppm
